The measured values listed here are drawn from patent US8871753B2.

Could you please report measured pIC50 for the items listed next?
- system_tested: TYK2 (Homo sapiens)
- Sequence (P29597 whole entry): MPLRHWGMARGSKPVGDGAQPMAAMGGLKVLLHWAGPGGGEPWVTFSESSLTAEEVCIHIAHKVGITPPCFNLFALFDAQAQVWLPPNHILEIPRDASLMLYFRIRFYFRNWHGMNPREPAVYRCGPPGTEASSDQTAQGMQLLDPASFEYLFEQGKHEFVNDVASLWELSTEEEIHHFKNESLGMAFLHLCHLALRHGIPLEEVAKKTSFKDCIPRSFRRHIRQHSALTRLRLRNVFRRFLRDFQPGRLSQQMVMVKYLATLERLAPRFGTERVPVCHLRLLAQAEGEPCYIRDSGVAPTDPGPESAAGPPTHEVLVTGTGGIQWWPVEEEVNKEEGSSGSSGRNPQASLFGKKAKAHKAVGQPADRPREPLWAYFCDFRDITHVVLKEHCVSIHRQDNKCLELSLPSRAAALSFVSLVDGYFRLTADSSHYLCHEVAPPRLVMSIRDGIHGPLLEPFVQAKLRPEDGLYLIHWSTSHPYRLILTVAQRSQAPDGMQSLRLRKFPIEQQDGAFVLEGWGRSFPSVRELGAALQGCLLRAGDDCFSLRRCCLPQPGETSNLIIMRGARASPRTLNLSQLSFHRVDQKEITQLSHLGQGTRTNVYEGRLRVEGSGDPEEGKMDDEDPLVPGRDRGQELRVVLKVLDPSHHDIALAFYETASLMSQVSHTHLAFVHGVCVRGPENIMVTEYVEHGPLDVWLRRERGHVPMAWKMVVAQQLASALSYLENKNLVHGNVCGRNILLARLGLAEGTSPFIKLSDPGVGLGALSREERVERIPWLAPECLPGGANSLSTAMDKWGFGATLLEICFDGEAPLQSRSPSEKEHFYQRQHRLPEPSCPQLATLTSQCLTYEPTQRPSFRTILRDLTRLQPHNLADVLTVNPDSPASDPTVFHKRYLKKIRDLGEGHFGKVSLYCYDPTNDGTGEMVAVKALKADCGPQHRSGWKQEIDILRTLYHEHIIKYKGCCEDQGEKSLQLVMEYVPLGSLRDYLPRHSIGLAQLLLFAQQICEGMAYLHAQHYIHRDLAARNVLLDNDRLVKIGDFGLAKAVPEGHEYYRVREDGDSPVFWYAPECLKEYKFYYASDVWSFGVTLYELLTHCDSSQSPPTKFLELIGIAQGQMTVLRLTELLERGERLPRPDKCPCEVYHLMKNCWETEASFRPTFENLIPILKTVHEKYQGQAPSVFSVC
- assay_remarks: TYK2 kinase inhibition (Table A1)
- Type: biochemical
- condition_context: Table B1
Where a name gives a salt, the structure may show the parent alone.
Remember, pIC50 is on a log scale: it is -log10 of the molar concentration.

Record request: pIC50 value, item N#Cc1cccc(C(=O)Nc2ccc3cc2CCc2cccc(c2)Nc2ncc(Cl)c(n2)N3)c1 [Example B65, trifluoroacetate]
8.23

Record request: pIC50 value, item CN(Cc1ccc2cc1CCc1cncc(c1)Nc1ncc(Cl)c(n1)N2)CC1CCN(C(=O)c2ccno2)CC1 [Example B345, tris(trifluoroacetate)]
7.01

Record request: pIC50 value, item CCCC(=O)Nc1ccc2cc1CCc1cccc(c1)Nc1ncc(Cl)c(n1)N2 [Example B56, trifluoroacetate]
7.85

Record request: pIC50 value, item O=C(Nc1ccc2cc1CCc1cncc(c1)Nc1ncc(Cl)c(n1)N2)N[C@H]1CCNC1 [Example B25, trihydrochloride]
7.30

Record request: pIC50 value, item CC(C)(C)NS(=O)(=O)c1cc2cc(c1)Nc1nc(ncc1Br)Nc1cccc(c1)CC2 [Example B17, trifluoroacetate]
6.82

Record request: pIC50 value, item Cn1ccc(S(=O)(=O)NCCNC(=O)Nc2ccc3cc2CCc2cccc(c2)Nc2ncc(Cl)c(n2)N3)n1 [Example B332, trifluoroacetate]
8.09

Record request: pIC50 value, item CC(=O)N1CCN(Cc2ccc3cc2CCc2cccc(c2)Nc2ncc(Cl)c(n2)N3)CC1 [Example B225, bis(trifluoroacetate)]
7.34

Record request: pIC50 value, item COc1ccc(S(=O)(=O)Nc2ccc3cc2CCc2cccc(c2)Nc2ncc(Cl)c(n2)N3)cc1 [Example B156, trifluoroacetate]
8.57

Record request: pIC50 value, item O=C(Nc1ccc2cc1CCc1cccc(c1)Nc1ncc(Cl)c(n1)N2)c1ccccc1F [Example B38, trifluoroacetate]
9.01

* * *

- system_tested: human JAK3 (a.a. 781-1124) (Homo sapiens, UniProt P52333)
- Construct: JAK3 (a.a. 781-1124); His tag (N); made in house; host or cells: insect cells (baculovirus)
- Sequence (P52333 781-1124): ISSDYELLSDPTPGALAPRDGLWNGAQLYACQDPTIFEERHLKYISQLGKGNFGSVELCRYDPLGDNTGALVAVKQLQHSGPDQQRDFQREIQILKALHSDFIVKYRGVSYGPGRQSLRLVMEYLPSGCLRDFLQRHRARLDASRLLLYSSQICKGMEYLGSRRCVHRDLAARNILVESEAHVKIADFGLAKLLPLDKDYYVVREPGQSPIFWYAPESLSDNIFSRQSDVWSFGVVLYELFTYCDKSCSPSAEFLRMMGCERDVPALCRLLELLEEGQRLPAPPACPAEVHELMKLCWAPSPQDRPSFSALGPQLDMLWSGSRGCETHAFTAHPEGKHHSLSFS
- assay_remarks: In vitro JAK kinase assay (HTRF, phosphorylation of a biotinylated peptide), JAK3
- Format: biochemical
- condition_context: Table D1
Where a name gives a salt, the structure may show the parent alone.
value_type: IC50 (µM)
Give just the numeric value; µM need not be written.

Record request: IC50 value, item Clc1cnc2nc1Nc1cccc(c1)CCSc1cccc(c1)N2 [Example D19, hydrochloride]
0.039

Record request: IC50 value, item Clc1cnc2nc1Nc1cccc(c1)SCc1cccc(c1)N2 [Example D1, trifluoroacetate]
0.016

* * *

- system_tested: human JAK1 (a.a. 837-1142) (Homo sapiens)
- Construct: human JAK1 (a.a. 837-1142); His tag (N); made in house; host or cells: insect cells (baculovirus)
- Sequence (P23458 849-1154): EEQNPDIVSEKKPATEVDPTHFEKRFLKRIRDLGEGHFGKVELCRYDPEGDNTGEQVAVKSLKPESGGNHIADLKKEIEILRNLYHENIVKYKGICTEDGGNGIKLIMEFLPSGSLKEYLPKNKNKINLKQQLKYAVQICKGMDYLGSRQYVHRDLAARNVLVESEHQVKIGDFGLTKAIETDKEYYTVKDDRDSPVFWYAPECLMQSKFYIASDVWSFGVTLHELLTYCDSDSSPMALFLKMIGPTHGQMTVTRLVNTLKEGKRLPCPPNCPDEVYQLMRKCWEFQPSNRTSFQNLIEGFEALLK
- assay_remarks: In vitro JAK kinase assay (HTRF, phosphorylation of a biotinylated peptide), JAK1
- Assay type: biochemical
- condition_context: Table D1; read-out: JAK1 IC50
Structures can show the parent of a compound that is named as a salt.
value_type: IC50 (µM)
Give just the numeric value; µM need not be written.

Record request: IC50 value, item O=C(Cc1ccccc1)Nc1cc2cc(c1)OCCSc1cccc(c1)Nc1nc(ncc1Cl)N2 [Example D64, trifluoroacetate]
0.0038

Record request: IC50 value, item Cc1cc(C(=O)N2CC[C@@H](CC(=O)Nc3ccc4cc3CCc3cncc(c3)Nc3ncc(Cl)c(n3)N4)C2)no1 [Example D124, bis(trifluoroacetate)]
0.016

Record request: IC50 value, item O=C(COc1ccc2cc1CCc1cncc(c1)Nc1ncc(Cl)c(n1)N2)N1CCN(C(=O)c2ccno2)CC1 [Example D260, bis(trifluoroacetate)]
0.015

Record request: IC50 value, item O=C(Nc1cc2cc(c1)OCCSc1cccc(c1)Nc1nc(ncc1Cl)N2)c1ccc2occc2c1 [Example D61, trifluoroacetate]
0.018

Record request: IC50 value, item O=C(C[C@H]1CCCN(c2nc3cccnc3o2)C1)Nc1ccc2cc1CCc1cncc(c1)Nc1ncc(Cl)c(n1)N2 [Example D214, tris(trifluoroacetate)]
0.012

Record request: IC50 value, item Clc1cnc2nc1Nc1cccc(c1)NCc1cccc(c1)N2 [Example D16, bis(trifluoroacetate)]
0.144
